- System: HCT116
- protocol summary: Cell-kill assay, HCT116
- Format: cell-based
- recorded conditions: Homo sapiens, HCT-116; free tiazofurin, 72 h
measure: EC50 (µM)
Give bare numbers, in µM.

Qu. Please give the measured EC50 for this molecule: "NC(=O)c1csc([C@@H]2O[C@H](CO)[C@@H](O)[C@H]2O)n1"
Ans. 72.6

* * *

- Tested on: hNMNAT-2-shRNA knockdown cells (Caco2)
- protocol summary: Cell-kill assay, hNMNAT-2-shRNA knockdown Caco2 cells
- Format: cell-based
- recorded conditions: Homo sapiens, Caco-2; hNMNAT2 overexpressing Caco2 silenced with hNMNAT2-shRNA, puromycin selected
measure: EC50 (µM)
Numbers only, in µM.

Qu. I would be grateful if you could share the reported EC50 for NC(=O)c1csc([C@@H]2O[C@H](CO)[C@@H](O)[C@H]2O)n1 [tiazofurin] .
Ans. 380
